- Experimental System: Torsin-1A (Homo sapiens) (UniProt O14656)
- Sequence (O14656 whole entry, looked up): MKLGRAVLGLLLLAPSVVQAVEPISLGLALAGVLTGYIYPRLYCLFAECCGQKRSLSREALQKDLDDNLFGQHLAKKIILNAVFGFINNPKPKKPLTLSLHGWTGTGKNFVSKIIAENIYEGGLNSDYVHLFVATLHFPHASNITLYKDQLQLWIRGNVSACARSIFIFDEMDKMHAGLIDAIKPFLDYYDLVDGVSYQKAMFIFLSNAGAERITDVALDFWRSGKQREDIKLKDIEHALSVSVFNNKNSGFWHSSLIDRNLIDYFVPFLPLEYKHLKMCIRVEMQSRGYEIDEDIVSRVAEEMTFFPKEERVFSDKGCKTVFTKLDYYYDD
- Test Description: small-molecule binders of mutant TOR1A in lysate, primary screen, cell lysate, small-molecule microarray, COS7 lysate, 635/667 nm fluorescence (AID 1150);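 further: score pools 667 nm emission and signal to noise measuring lysate protein binding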
- Setup Conditions: COS7 hTOR1A mutant lysate, 635 nm fluorescence, higher = more signal
Measured Endpoint: composite z-score
When you answer, write just the number.

Example entries and their recorded answers appear below.
| Compound | Measured Endpoint | Measurement |
| --- | --- | --- |
| COCCOC(=O)N1C(=O)[C@@]2(c3ccccc31)[C@H](C(=O)Nc1nc3ccccc3s1)[C@H]1C(=O)O[C@H](c3ccccc3)[C@H](c3ccccc3)N1[C@@H]2c1ccc(OCCO)cc1 | composite z-score | 1.25 |
| CCCCCCCCCCC(O)C1C=CC2C(=O)N(Cc3ccccc3)C(=O)C2N1n1cnnc1 (configuration not stated) | composite z-score | 0.567 |
| COCCCNC(=O)[C@@]1(C)c2ccccc2C(=O)N(Cc2cc(C(F)(F)F)cc(C(F)(F)F)c2)[C@H]1c1ccc(CO)cc1 | composite z-score | -1.27 |
| CO[C@H]1O[C@H](CO)[C@@H](OC(=O)Nc2ccc(Oc3ccccc3)cc2)[C@H](OC(=O)Nc2ccccc2)[C@H]1OC(=O)Nc1ccccc1 | composite z-score | 0.76 |
| C=CC[C@@]1(C(=O)N2CCOCC2)N=C(c2ccc(OCCCO)cc2)O[C@@H]1c1ccccc1N=[N+]=[N-] | composite z-score | 0.386 |

(Q) Can you share its composite z-score? I mean this compound: C=CCC(OC(C)=O)[C@@H]1[C@@H](N(Cc2ccc(-c3cccc(C(F)(F)F)c3)o2)C(=O)c2ccc(C)cc2)c2cc(OCCCO)ccc2N1C(=O)c1ccc(-c2ccccc2)cc1 (some centres not stated)
(A) -0.141

(Q) Similarly, CCCC[C@H]1OB(O)C[C@H]2C1=C(C)C[C@H]1C(=O)N(Cc3ccccc3)C(=O)[C@H]12 ?
(A) 0.528

* * *

- Test Description: binders of probe aFGF2 on microarray, primary screen, stem cell growth factor project, biochemical, small-molecule microarray, fluorescence 635/667 (AID 1067);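 further: measures binding of biotinylated aFGF2 protein to printed compounds on slides; z-score merges feature fluorescence and signal-to-noise across triplicate slides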
- Setup Conditions: higher = more signal
Measured Endpoint: composite z-score

| Compound | composite z-score |
| --- | --- |
| C=C(CCCC)/C(=C/C[C@H](OC(C)=O)c1ccc(CO)o1)c1cnc2ccccc2c1 | -0.0749 |
| O=C1c2ccccc2[C@@]2(Cc3ccccc3N(Cc3ccccc3)C2=O)[C@H](c2ccc(CO)cc2)N1C1CCCCC1 | -0.152 |

(Q) Quick check: composite z-score of COC(=O)[C@@]1(Cc2ccccc2)[C@H]2c3cc(C(=O)N4CCCC4)n(C)c3C[C@H]2CN1C(=O)c1ccccc1 ?
(A) 0.107

* * *

- Experimental System: Neurogenic locus notch homolog protein 3 (Homo sapiens)
- Test Description: NOTCH3 binders on small-molecule microarray, primary screen, biochemical, 635/667 nm fluorescence (AID 1096)
- Setup Conditions: NOTCH3 binding, 635 nm fluorescence, higher = more signal
# composite z-score per record follows

Example compounds with recorded composite z-score:
| Compound | composite z-score |
| --- | --- |
| CC(C)C(=C=CC[C@@H](O)c1ccccc1OCCO)C[C@@H](O)c1ccccn1 | 0.878 |
| CCN(CC)c1ccc(N2CC=CC34O[C@@H]5C=CCCOC(=O)C5[C@H]3C(=O)N(CCCCCO)[C@@H]4C2=O)cc1 (some centres undefined) | -0.272 |
| O=C(CCN1CCOCC1)c1cccc(O)c1 | 1.07 |

Shifting focus to the compound that follows.
(Q) Dear colleague, I am looking for the recorded composite z-score of the following compound: CCOC(=O)C[C@H]1[C@H](OC(=O)c2ccc(C(=O)c3ccccc3)cc2)[C@@H](NC(=O)C2CCCCC2)c2cc(OCCCO)ccc2N1C(=O)c1ccccc1
(A) -0.215

* * *

- Experimental System: NADPH oxidase 4 (Homo sapiens) (UniProt Q9NPH5)
- Sequence (Q9NPH5 whole entry, looked up): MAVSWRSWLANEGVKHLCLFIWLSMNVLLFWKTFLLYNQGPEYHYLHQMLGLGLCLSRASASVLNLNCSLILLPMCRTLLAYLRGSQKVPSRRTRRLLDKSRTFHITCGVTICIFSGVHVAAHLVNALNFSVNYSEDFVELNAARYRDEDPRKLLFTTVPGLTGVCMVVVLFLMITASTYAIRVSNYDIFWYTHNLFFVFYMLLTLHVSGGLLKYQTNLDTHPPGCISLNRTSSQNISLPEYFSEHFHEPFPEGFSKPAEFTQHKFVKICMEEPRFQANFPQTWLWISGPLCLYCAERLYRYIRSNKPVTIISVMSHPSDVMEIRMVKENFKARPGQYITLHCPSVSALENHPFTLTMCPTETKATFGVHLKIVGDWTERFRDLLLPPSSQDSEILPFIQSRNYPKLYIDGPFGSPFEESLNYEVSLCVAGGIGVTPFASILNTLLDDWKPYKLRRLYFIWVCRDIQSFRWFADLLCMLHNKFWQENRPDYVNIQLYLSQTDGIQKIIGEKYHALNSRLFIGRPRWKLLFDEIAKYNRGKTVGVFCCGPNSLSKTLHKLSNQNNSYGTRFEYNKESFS
- Test Description: NOX4-dependent H2O2 signal modulators, primary screen, NOX inhibitor project, cell-based, HEK293-NOX4, tetracycline-induced, Amplex Red fluorescence (AID 1160)
- Setup Conditions: 45 min, higher = more signal, called active from +8 up or from −8 down
Measured Endpoint: z-score
Enter a number only.

Study these solved cases before continuing.
| Molecular String | Measured Endpoint | Measurement |
| --- | --- | --- |
| O=C1O[C@@H](c2ccccc2)[C@@H](c2ccccc2)N2[C@@H](c3ccc(OCCO)cc3)[C@]3(C(=O)Nc4ccccc43)[C@@H](C(=O)Nc3nc4ccccc4s3)[C@H]12 | z-score | 1.24 |
| CC(C)N1C(=O)c2ccccc2[C@@H](C(=O)NCCCN(C)C)[C@@H]1c1ccc(CO)cc1 | z-score | -0.858 |
| [N-]=[N+]=NCc1ccccc1[C@@H]1OC(c2ccc(OCCCO)cc2)=N[C@]1(Cc1ccccc1)C(=O)N1CCCCC1 | z-score | 0.453 |

Next compound, please.
(Q) Please give the measured z-score for this compound: CCCC[C@H]1OB(O)C[C@H]2C1=C(C)C[C@H]1C(=O)N(Cc3ccccc3)C(=O)[C@H]12
(A) 0.765

* * *

Listing of entries alongside the reported composite z-score.
- Experimental System: Albumin (Bos taurus) (UniProt P02769)
- Sequence (P02769 whole entry, looked up): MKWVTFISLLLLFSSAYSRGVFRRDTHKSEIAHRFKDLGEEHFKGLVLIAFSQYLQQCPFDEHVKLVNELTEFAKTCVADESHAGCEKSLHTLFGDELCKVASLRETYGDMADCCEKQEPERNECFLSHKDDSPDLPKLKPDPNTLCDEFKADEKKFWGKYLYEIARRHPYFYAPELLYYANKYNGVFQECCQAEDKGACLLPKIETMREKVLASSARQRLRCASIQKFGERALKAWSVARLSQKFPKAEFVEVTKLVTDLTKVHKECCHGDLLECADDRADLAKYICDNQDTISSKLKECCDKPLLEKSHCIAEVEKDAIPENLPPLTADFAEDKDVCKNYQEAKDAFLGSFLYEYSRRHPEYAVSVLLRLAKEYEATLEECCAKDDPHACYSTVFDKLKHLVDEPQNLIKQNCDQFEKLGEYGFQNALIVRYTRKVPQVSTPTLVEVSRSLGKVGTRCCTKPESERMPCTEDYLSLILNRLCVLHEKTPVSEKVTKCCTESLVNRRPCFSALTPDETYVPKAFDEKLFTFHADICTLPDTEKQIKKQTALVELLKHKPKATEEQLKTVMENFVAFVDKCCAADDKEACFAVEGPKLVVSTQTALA
- Test Description: bovine serum albumin binders on microarray, profiling panel, artefact control for SMM control protein annotation, biochemical, small-molecule microarray, Alexa647 label, 635/667 nm fluorescence (AID 1118);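 further: score merges 667 nm emission intensity and signal-to-noise per printed compound spot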
- Setup Conditions: BSA-A647 binding, fluorescence 635 nm, higher = more signal

| Molecular String | composite z-score |
| --- | --- |
| O=C1O[C@H](c2ccccc2)[C@H](c2ccccc2)N2[C@H]1[C@@H](C(=O)NC[C@H](O)c1ccccc1)[C@]1(C(=O)Nc3ccc(C#CCCO)cc31)[C@H]2c1ccc(O)cc1 | -0.746 |
| O=C1N(CCS(=O)(=O)c2ccccc2)c2ccccc2C[C@@]12COC(c1ccc(OCCCO)cc1)=N2 | -0.746 |
| [N-]=[N+]=NCc1ccccc1C[C@]1(C(=O)NCCN2CCOCC2)N=C(c2ccc(OCCCO)cc2)O[C@H]1c1ccccc1N=[N+]=[N-] | 0.926 |

Continue with the next compound.
(Q) Entry CC(C)NC(=O)[C@@]1(Cc2ccccc2I)c2ccccc2C(=O)N(Cc2ccccc2)[C@H]1c1ccc(CO)cc1 : reported composite z-score = ?
(A) 0.162

* * *

- Test Description: basal MM1S mitochondrial membrane potential changes, profiling panel, cell-based, JC-1 fluorescence, 24 h, 100 nL compound (AID 1170); further: test concentration not given here
- Setup Conditions: higher = more signal
This listing pairs molecules with measured z-score.

| Molecule | Measurement |
| --- | --- |
| CC(C)C(O)C1C=CC2C(=O)N(c3ccccc3)C(=O)C2N1Nc1ccc(C#N)cc1 (centres undefined) | -0.44 |
| CCCCCN1CC=CC23O[C@@H]4/C=C\CCC(C)OC(=O)C4[C@H]2C(=O)N(CCCCCO)[C@@H]3C1=O (some centres undefined) | -0.617 |
| COCC(=C=CC[C@H](O)c1ccc(OCCO)cc1)C[C@H](O)c1cc(Cl)cc(Cl)c1O | -1.42 |

# context switch: different molecule, same z-score
(Q) Need z-score of C=CC[C@@]1(C(=O)O)N=C(c2ccc(OCCCO)cc2)O[C@@H]1c1ccccc1N=[N+]=[N-] , thanks.
(A) -0.947

* * *

- Experimental System: Torsin-1A-interacting protein 1 (Homo sapiens)
- Test Description: LAP1 binders from COS7 cell lysate, primary screen, small-molecule microarray, 635/667 nm fluorescence (AID 1116)
- Setup Conditions: COS7-hLAP1 lysate binding, 635 nm fluorescence, higher = more signal
Measured Endpoint: composite z-score
Give the value as a plain number.

| Compound | composite z-score |
| --- | --- |
| COCCOC(=O)N1C(=O)[C@@]2(c3cc(C#CCC(C(=O)OC)C(=O)OC)ccc31)[C@H](C(=O)N1CCN(c3ncccn3)CC1)[C@H]1C(=O)O[C@H](c3ccccc3)[C@H](c3ccccc3)N1[C@@H]2c1ccc(OCCO)cc1 | 0.383 |
| COc1ccc(C(O)C2C=CC3C(=O)NC(=O)C3N2Nc2ccccn2)cc1OCc1ccccc1 (stereo not drawn) | 0.474 |

// below: composite z-score requested for another compound
(Q) Give the measured composite z-score of CCOc1cc(C(O)C2C=CC3C(=O)N(c4ccccc4)C(=O)C3N2Nc2ccc([N+](=O)[O-])cc2)ccc1O (stereo not drawn) .
(A) 0.0762

* * *

- Test Description: small-molecule microarray binders of probe aDKK1, primary screen, biochemical, biotinylated probe, 635/667 nm fluorescence (AID 1099);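 further: score merges 667nm spot fluorescence with signal to noise across triplicate slides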
- Setup Conditions: higher = more signal
Output: class label from composite z-score. Mapping: low = under -0.04, medium = from -0.04 up to 0.4, high = 0.4 and over

Solved entries (count: 10):
| Compound | Label Class |
| --- | --- |
| COCC1=C2[C@@H](CCc3ccccc3)OB(O)C[C@@H]2[C@@H]2C(=O)N(Cc3ccccc3)C(=O)[C@@H]2C1 | low |
| CC(C)OC(=O)CC(=O)CC(O)c1ccc(C#N)cc1 (stereo not drawn) | high |
| CCC(CC)C(O)C1C=CC2C(=O)N(c3ccccc3)C(=O)C2N1Nc1ccc(C#N)cc1 (stereo not drawn) | high |
| COCCOC(=O)N1C(=O)[C@@]2(c3cc(C#CCNC(N)=O)ccc31)[C@H](c1ccc(OCCO)cc1)N1[C@H](c3ccccc3)[C@H](c3ccccc3)OC(=O)[C@H]1[C@@H]2C(=O)N1CCc2cc(OC)c(OC)cc2C1 | medium |
| COc1ccc(CCNC(=O)[C@@]2(c3ccc([N+](=O)[O-])cc3)CC(=O)N(CC34CC5CC(CC(C5)C3)C4)[C@@H]2c2ccc(CO)cc2)cc1 | high |
| COC(=O)[C@@]1(Cc2ccc(F)cc2)[C@H]2c3cc(C(=O)N(C)C)n(CCc4ccccn4)c3C[C@H]2CN1C(=O)c1ccccc1 | high |
| CCCCCN1CC=CC23O[C@@H]4/C=C\CCC(C)OC(=O)C4[C@H]2C(=O)N(CCCCCO)[C@@H]3C1=O (stereo partly drawn) | low |
| CN(C)CCCNC(=O)[C@@]1(Cc2ccccc2I)c2ccccc2C(=O)N(Cc2ccccc2C(F)(F)F)[C@H]1c1ccc(CO)cc1 | medium |
| COc1ccc(C(O)C2C=CC3C(=O)N(c4ccccc4)C(=O)C3N2Nc2ccc([N+](=O)[O-])cc2)cc1OCc1ccccc1 (stereo not drawn) | high |
| COCCOC(=O)N1C(=O)[C@@]2(c3cc(C#Cc4ccc(OC)cc4)ccc31)[C@H](C(=O)N1CCN(c3ncccn3)CC1)[C@H]1C(=O)O[C@H](c3ccccc3)[C@H](c3ccccc3)N1[C@@H]2c1ccc(O)cc1 | low |

(Q) Kindly state the category for this compound: O=C/C=C/c1ccc2c(c1)OCO2
(A) low

(Q) What do you get for CCCCCCCCCCC(O)C1C=CC2C(=O)N(Cc3ccccc3)C(=O)C2N1n1cnnc1 (stereo not drawn) ?
(A) high

(Q) What about CC(C)(C)OC(=O)CC[C@@]1(C(=O)NCCN2CCOCC2)N=C(c2ccc(OCCCO)cc2)O[C@@H]1c1ccccc1 ?
(A) high

(Q) Note, next up: O=C1O[C@@H](c2ccccc2)[C@@H](c2ccccc2)N2[C@@H](c3ccc(O)cc3)[C@]3(C(=O)Nc4ccc(C#CC5(O)CCCCCC5)cc43)[C@@H](C(=O)N3CCCCCCC3)[C@H]12
(A) high
